molecular target: Phosphatidylinositol 4,5-bisphosphate 3-kinase catalytic subunit gamma isoform (Homo sapiens); assay: Inhibition of human PI3Kgamma; conditions: read-out: pIC50 (converted)
Sequence (P48736 whole entry, canonical isoform): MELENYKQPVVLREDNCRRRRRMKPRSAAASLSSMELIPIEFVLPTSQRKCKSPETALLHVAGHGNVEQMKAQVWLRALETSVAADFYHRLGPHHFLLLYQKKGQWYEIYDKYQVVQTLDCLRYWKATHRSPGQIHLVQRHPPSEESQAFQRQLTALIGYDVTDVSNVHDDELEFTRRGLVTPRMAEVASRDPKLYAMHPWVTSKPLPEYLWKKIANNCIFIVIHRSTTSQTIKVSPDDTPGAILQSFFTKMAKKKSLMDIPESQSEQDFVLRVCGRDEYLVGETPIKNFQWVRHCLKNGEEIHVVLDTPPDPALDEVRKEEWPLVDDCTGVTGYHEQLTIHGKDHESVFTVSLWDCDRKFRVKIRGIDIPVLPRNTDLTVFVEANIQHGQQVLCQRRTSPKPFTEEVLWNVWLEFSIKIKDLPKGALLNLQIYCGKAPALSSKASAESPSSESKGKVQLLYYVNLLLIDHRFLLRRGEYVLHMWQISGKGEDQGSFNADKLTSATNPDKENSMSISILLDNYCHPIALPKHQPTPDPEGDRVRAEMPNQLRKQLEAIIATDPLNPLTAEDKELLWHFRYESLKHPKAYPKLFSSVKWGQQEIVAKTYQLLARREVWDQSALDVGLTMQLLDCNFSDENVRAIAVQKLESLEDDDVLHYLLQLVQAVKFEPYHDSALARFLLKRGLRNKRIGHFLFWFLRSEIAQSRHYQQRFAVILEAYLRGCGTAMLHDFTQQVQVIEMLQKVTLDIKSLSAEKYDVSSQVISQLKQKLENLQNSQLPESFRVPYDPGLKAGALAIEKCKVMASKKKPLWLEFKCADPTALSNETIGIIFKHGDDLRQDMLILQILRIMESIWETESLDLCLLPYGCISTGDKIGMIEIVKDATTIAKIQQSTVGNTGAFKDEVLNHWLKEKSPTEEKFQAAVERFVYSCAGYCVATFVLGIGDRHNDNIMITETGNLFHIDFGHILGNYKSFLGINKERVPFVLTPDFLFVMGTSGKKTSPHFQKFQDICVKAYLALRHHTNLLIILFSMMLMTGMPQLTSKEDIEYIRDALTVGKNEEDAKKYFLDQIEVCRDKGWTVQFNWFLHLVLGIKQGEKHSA
IC50 values, listed per item
Assay readout: IC50

[[record]]
molecular_string = "Clc1ccc(Nc2nccc(-c3ccc(Cl)c(Cl)c3)n2)c(Cl)c1"
result = "250 nM"

[[record]]
molecular_string = "Cc1cccc(Nc2nccc(-c3ccc(Br)cc3)n2)c1"
result = "342 nM"

[[record]]
molecular_string = "Clc1ccc(Nc2nccc(-c3ccc(Br)cc3)n2)c(Cl)c1"
result = "231 nM"

[[record]]
molecular_string = "O=[N+]([O-])c1ccc(Nc2nccc(-c3ccc(F)cc3)n2)cc1"
result = "247 nM"

[[record]]
molecular_string = "Clc1ccc(Nc2nccc(-c3ccc(Cl)cc3Cl)n2)c(Cl)c1"
result = "268 nM"

[[record]]
molecular_string = "COc1ccc(-c2ccnc(Nc3cccc(OC)c3)n2)cc1"
result = "195 nM"

[[record]]
molecular_string = "O=[N+]([O-])c1ccc(Nc2nccc(-c3ccc(Br)cc3)n2)cc1"
result = "265 nM"

[[record]]
molecular_string = "O=[N+]([O-])c1ccc(Nc2nccc(-c3ccc(Cl)cc3Cl)n2)cc1"
result = "386 nM"

[[record]]
molecular_string = "COc1ccc(-c2ccnc(Nc3ccc([N+](=O)[O-])cc3)n2)cc1"
result = "143 nM"

[[record]]
molecular_string = "COc1cccc(Nc2nccc(-c3ccc(Cl)c(Cl)c3)n2)c1"
result = "217 nM"

[[record]]
molecular_string = "Cc1cccc(Nc2nccc(-c3ccc(Cl)cc3Cl)n2)c1"
result = "274 nM"

[[record]]
molecular_string = "CC(C)c1ccccc1Nc1nccc(-c2ccc(Br)cc2)n1"
result = "313 nM"

[[record]]
molecular_string = "COc1cccc(Nc2nccc(-c3ccc(F)cc3)n2)c1"
result = "334 nM"

[[record]]
molecular_string = "Clc1ccc(Nc2nccc(-c3ccc(Br)cc3)n2)cc1"
result = "302 nM"

[[record]]
molecular_string = "COc1cccc(Nc2nccc(-c3ccc(Cl)cc3Cl)n2)c1"
result = "278 nM"

[[record]]
molecular_string = "COc1ccc(-c2ccnc(Nc3ccc(Cl)cc3)n2)cc1"
result = "167 nM"

[[record]]
molecular_string = "COc1cccc(Nc2nccc(-c3ccc(Br)cc3)n2)c1"
result = "357 nM"

[[record]]
molecular_string = "COc1ccc(-c2ccnc(Nc3ccc(Cl)cc3Cl)n2)cc1"
result = "235 nM"

[[record]]
molecular_string = "O=[N+]([O-])c1ccc(Nc2nccc(-c3ccc(Cl)c(Cl)c3)n2)cc1"
result = "154 nM"

[[record]]
molecular_string = "Cc1ccc(-c2ccnc(Nc3ccc(Cl)cc3Cl)n2)cc1"
result = "371 nM"


* * *

pIC50 values, listed per item
molecular target: Phosphatidylinositol 4,5-bisphosphate 3-kinase catalytic subunit beta isoform (Homo sapiens); assay: Inhibition of human PI3Kbeta
Sequence (P42338 whole entry, canonical isoform): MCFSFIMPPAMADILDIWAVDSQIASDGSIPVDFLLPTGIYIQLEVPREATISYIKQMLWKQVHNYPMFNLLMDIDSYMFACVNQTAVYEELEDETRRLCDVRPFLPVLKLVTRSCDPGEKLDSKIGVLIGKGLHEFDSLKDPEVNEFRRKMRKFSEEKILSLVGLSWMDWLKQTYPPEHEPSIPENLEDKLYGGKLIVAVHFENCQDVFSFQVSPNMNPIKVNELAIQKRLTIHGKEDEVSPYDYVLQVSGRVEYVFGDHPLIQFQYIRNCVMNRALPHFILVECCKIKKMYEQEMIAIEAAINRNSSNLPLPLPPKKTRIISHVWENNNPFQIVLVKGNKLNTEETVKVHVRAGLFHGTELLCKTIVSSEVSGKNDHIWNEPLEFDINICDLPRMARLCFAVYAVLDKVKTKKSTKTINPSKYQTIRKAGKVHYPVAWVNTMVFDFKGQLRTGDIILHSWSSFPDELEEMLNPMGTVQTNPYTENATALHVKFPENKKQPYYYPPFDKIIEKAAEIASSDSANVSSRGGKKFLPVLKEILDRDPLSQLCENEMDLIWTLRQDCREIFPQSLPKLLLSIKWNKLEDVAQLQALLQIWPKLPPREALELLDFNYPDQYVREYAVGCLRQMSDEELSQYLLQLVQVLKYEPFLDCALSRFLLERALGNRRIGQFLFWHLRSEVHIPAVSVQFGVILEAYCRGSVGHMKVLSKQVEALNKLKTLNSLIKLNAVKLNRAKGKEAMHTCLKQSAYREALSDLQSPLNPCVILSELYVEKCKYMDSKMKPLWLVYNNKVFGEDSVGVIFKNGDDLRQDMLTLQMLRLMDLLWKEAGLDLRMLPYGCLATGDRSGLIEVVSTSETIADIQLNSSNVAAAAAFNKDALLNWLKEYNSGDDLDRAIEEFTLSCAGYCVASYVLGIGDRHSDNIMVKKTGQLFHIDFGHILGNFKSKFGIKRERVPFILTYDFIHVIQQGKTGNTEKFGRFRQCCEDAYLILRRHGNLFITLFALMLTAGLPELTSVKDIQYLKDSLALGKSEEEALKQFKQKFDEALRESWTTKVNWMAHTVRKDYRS
pIC50: −log10 of the molar value.
Assay readout: pIC50

[[record]]
molecular_string = "COc1cccc(Nc2nccc(-c3ccc(Br)cc3)n2)c1"
assay_readout = "pIC50"
reading_qualifier = "="
result = 6.01

[[record]]
molecular_string = "Clc1ccc(Nc2nccc(-c3ccc(Br)cc3)n2)c(Cl)c1"
assay_readout = "pIC50"
reading_qualifier = "="
result = 6.17

[[record]]
molecular_string = "Cc1cccc(Nc2nccc(-c3ccc(Br)cc3)n2)c1"
assay_readout = "pIC50"
reading_qualifier = "<"
result = 6.00

[[record]]
molecular_string = "COc1cc(Nc2nccc(-c3ccc(Cl)cc3)n2)cc(OC)c1OC"
assay_readout = "pIC50"
reading_qualifier = "="
result = 6.43

[[record]]
molecular_string = "Clc1ccc(Nc2nccc(-c3ccc(Cl)c(Cl)c3)n2)c(Cl)c1"
assay_readout = "pIC50"
reading_qualifier = "="
result = 6.03

[[record]]
molecular_string = "O=[N+]([O-])c1ccc(Nc2nccc(-c3ccc(Br)cc3)n2)cc1"
assay_readout = "pIC50"
reading_qualifier = "="
result = 6.02


These measurements were taken from ChEMBL document CHEMBL3132747.
